- Test system: AMO-1 human multiple myeloma tumor cell line
- ASSAY: AMO-1 cell viability assay (CellTiter-Glo, 24 hours)
- Format: cell-based
- MEASUREMENT_CONDITIONS: Homo sapiens, AMO1, 24 h, read-out: AMO-1 Viability IC50 (μM, 10% FBS), 10% FBS, 24 hours of compound treatment
Group membership follows IC50 per the scheme low value = under 0.0005 µM, medium value = from 0.0005 µM up to 0.003 µM, high value = 0.003 µM and over

[
  {
    "MOLECULE": "Cc1c(Cl)c2c(Cl)c(C)c1-c1c(-c3ccc(F)cc3)sc3ncnc(c13)O[C@@H](C(=O)O)Cc1cc(ccc1OCc1ccnc(N3CCC(F)(COCCOCC4COCCO4)CC3)n1)OC[C@@H](CN1CCN(C)CC1)O2 (some centres unmarked)",
    "QUALITATIVE_LABEL": "medium value"
  },
  {
    "MOLECULE": "COCCOCCOCCOc1ccccc1-c1nccc(COc2ccc3cc2C[C@H](C(=O)O)Oc2ncnc4sc(-c5ccc(F)cc5)c(c24)-c2c(C)c(Cl)c(c(Cl)c2C)O[C@H](CN2CCN(C)CC2)CO3)n1",
    "QUALITATIVE_LABEL": "medium value"
  },
  {
    "MOLECULE": "COCCOCCOCC1CN(c2nccc(COc3ccc4cc3C[C@@H](C(=O)O)Oc3ncnc5sc(-c6ccc(F)cc6)c(c35)-c3c(C)c(Cl)c(c(Cl)c3C)O[C@H](CN3CCN(C)CC3)CO4)n2)C1",
    "QUALITATIVE_LABEL": "high value"
  },
  {
    "MOLECULE": "COCC(COC)Oc1nccc(COc2ccc3cc2C[C@H](C(=O)O)Oc2ncnc4sc(-c5ccc(F)cc5)c(c24)-c2c(C)c(Cl)c(c(Cl)c2C)O[C@H](CN2CCN(C)CC2)CO3)n1",
    "QUALITATIVE_LABEL": "low value"
  },
  {
    "MOLECULE": "Cc1c(Cl)c2c(Cl)c(C)c1-c1c(-c3ccc(F)cc3)sc3ncnc(c13)O[C@@H](C(=O)O)Cc1cc(ccc1OCc1ccnc([C@]3(O)CCCC[C@H]3O)n1)OC[C@@H](CN1CCN(C)CC1)O2",
    "QUALITATIVE_LABEL": "medium value"
  },
  {
    "MOLECULE": "Cc1c(Cl)c2c(Cl)c(C)c1-c1c(-c3ccc(F)cc3)sc3ncnc(c13)O[C@@H](C(=O)O)Cc1cc(ccc1OCc1ccnc(-c3ccc(OCC4COCCOCCOCCOCCO4)cc3)n1)OC[C@@H](CN1CCN(C)CC1)O2 (some centres unmarked)",
    "QUALITATIVE_LABEL": "medium value"
  },
  {
    "MOLECULE": "COCCOCCOCC1CN(c2nccc(COc3ccc4cc3C[C@H](C(=O)O)Oc3ncnc5sc(-c6ccc(F)cc6)c(c35)-c3c(C)c(Cl)c(c(Cl)c3C)O[C@H](CN3CCN(C)CC3)CO4)n2)C1",
    "QUALITATIVE_LABEL": "medium value"
  },
  {
    "MOLECULE": "COCCOCCOCCN(CCOCCOCCOC)c1nccc(COc2ccc3cc2C[C@H](C(=O)O)Oc2ncnc4sc(-c5ccc(F)cc5)c(c24)-c2c(C)c(Cl)c(c(Cl)c2C)O[C@H](CN2CCN(C)CC2)CO3)n1",
    "QUALITATIVE_LABEL": "high value"
  },
  {
    "MOLECULE": "Cc1c(Cl)c2c(Cl)c(C)c1-c1c(-c3ccc(F)cc3)sc3ncnc(c13)O[C@@H](C(=O)O)Cc1cc(ccc1OCc1ccnc(-c3ccc(OCCN4C[C@H]5COC[C@H]5C4)cc3)n1)OC[C@@H](CN1CCN(C)CC1)O2",
    "QUALITATIVE_LABEL": "low value"
  },
  {
    "MOLECULE": "COCCOCCOCC1(F)CC=C(c2nccc(COc3ccc4cc3C[C@H](C(=O)O)Oc3ncnc5sc(C6CCC6)c(c35)-c3c(C)c(Cl)c(c(Cl)c3C)O[C@H](CN3CCN(C)CC3)CO4)n2)CC1 (single isomer, unassigned)",
    "QUALITATIVE_LABEL": "low value"
  },
  {
    "MOLECULE": "Cc1c(Cl)c2c(Cl)c(C)c1-c1c(-c3ccc(F)cc3)sc3ncnc(c13)O[C@@H](C(=O)O)Cc1cc(ccc1OCc1ccnc(-c3ccc(CN4CCOCCOCCOCCOCC4)cc3)n1)OC[C@@H](CN1CCN(C)CC1)O2",
    "QUALITATIVE_LABEL": "low value"
  },
  {
    "MOLECULE": "Cc1c(Cl)c2c(Cl)c(C)c1-c1c(-c3ccc(F)cc3)sc3ncnc(c13)O[C@@H](C(=O)O)Cc1cc(ccc1OCc1ccnc(N3CCO[C@H](COCCOCC4COCCO4)C3)n1)OC[C@@H](CN1CCN(C)CC1)O2 (some centres unmarked)",
    "QUALITATIVE_LABEL": "low value"
  },
  {
    "MOLECULE": "Cc1c(Cl)c2c(Cl)c(C)c1-c1c(-c3ccc(F)cc3)sc3ncnc(c13)O[C@@H](C(=O)O)Cc1cc(ccc1OCc1ccnc(C3=CCC(CC(=O)O)CC3)n1)OC[C@@H](CN1CCN(C)CC1)O2 (single isomer, unassigned)",
    "QUALITATIVE_LABEL": "high value"
  },
  {
    "MOLECULE": "Cc1c(Cl)c2c(Cl)c(C)c1-c1c(-c3ccc(F)cc3)sc3ncnc(c13)O[C@@H](C(=O)O)Cc1cc(ccc1OCc1ccnc(-c3cccc(CP(C)(C)=O)c3)n1)OC[C@@H](CN1CCN(C)CC1)O2",
    "QUALITATIVE_LABEL": "high value"
  },
  {
    "MOLECULE": "CO[C@H]1O[C@H](COc2ccc(-c3nccc(COc4ccc5cc4C[C@H](C(=O)O)Oc4ncnc6sc(-c7ccc(F)cc7)c(c46)-c4ccc(c(Cl)c4C)CN(CCN4CCN(C)CC4)C5)n3)cc2)[C@@H](O)[C@H](O)[C@H]1O",
    "QUALITATIVE_LABEL": "high value"
  },
  {
    "MOLECULE": "COCCOCCOCCOc1ccccc1-c1nccc(COc2ccc3cc2C[C@@H](C(=O)O)Oc2ncnc4sc(-c5ccc(F)cc5)c(c24)-c2ccc(c(Cl)c2C)O[C@H](CN2CCN(C)CC2)CO3)n1 (atropisomer, axis not shown)",
    "QUALITATIVE_LABEL": "high value"
  },
  {
    "MOLECULE": "COCCOCCOCCOCCOCCOCCOCC1(c2nccc(COc3ccc4cc3C[C@H](C(=O)O)Oc3ncnc5sc(-c6ccc(F)cc6)c(c35)-c3c(C)c(Cl)c(c(Cl)c3C)O[C@H](CN3CCN(C)CC3)CO4)n2)CCC1",
    "QUALITATIVE_LABEL": "medium value"
  }
]
